B1: EEHEE_rd3_1049 (parent)
chain: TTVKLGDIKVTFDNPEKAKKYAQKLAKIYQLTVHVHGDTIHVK

Variants of: B1
Experiment: folding stability dG (cDNA display proteolysis); higher = more stable
Conditions: PBS, room temperature
MEASURED METRIC: folding stability dG (kcal/mol)
Give just the number in kcal/mol; leave the unit off.

Consider the worked cases shown below.
VARIANT DESIGNATION: G37V
OBS VALUE: 1.05
//
VARIANT DESIGNATION: L25F
OBS VALUE: 0.868

Now for the variant whose folding stability dG we want.
Record summary for `K9I` : reported folding stability dG = 2.46
